Tested on: TSSK3;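 further: KINOMEscan kinase panel screen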
Conditions: concentration: 1 μM, replicates: in singlicate; n = 1
Give %Inh for every item shown.
Kindly answer with a numeric value in %, unit omitted.

Param item = Cn1cc(-c2ccc3c(c2)CCN3C(=O)Cc2cccc(F)c2)c2c(N)ncnc21 [GSK2603358] ; retrieve measured %Inh.
11

Param item = Cl.c1ccc(-c2ccc3c(Nc4ccc5[nH]ncc5c4)ccnc3c2)nc1 [GW440137] ; retrieve measured %Inh.
7

Param item = COc1cc(Nc2nccc(-c3c(-c4cccc(NC(=O)c5c(F)cccc5F)c4)nn4ncccc34)n2)cc(OC)c1OC [GSK327238] ; retrieve measured %Inh.
19

Param item = COc1cccc(C(=O)Nc2cccc(Oc3ccc4nc(NC(=O)C5CC5)cn4n3)c2)c1 ; retrieve measured %Inh.
0

Param item = FC(F)(F)c1ccc(/C=C/c2cncnc2Nc2ccc3[nH]c(Cc4ccccc4)nc3c2)cc1 [GW709199] ; retrieve measured %Inh.
0

Param item = CN(c1ccc(NC(=O)Nc2cc(C(F)(F)F)ccc2F)cc1)c1ccnc(Nc2ccc(S(N)(=O)=O)cc2)n1 [GW809893] ; retrieve measured %Inh.
9

Param item = CN1CCN(Cc2cccc(-c3ccc4c(Nc5ccc(Oc6ccccc6)cc5)ccnc4c3)c2)CC1 [GW578342] ; retrieve measured %Inh.
6

Param item = CC(=O)Nc1nc2cnc(Nc3cc(NC(=O)c4cccc(C5(C#N)CC5)c4Cl)ccc3C)nc2s1 ; retrieve measured %Inh.
0

Param item = O=C(NC1CCN(c2ccnc(Nc3ccc(F)cc3)n2)C1)c1cc2ccccc2s1 (stereo not shown) [GSK1379716] ; retrieve measured %Inh.
19

Param item = COc1ccc(Nc2nccc(NCCNC(=O)c3cc4ccccc4s3)n2)cc1 [GSK1379896] ; retrieve measured %Inh.
20

Param item = CC(C)(C)c1ccc2nccc(Nc3cccc(O)c3)c2c1 [GW856795] ; retrieve measured %Inh.
60

Param item = Fc1ccc(-c2ncn(C3CCNCC3)c2-c2ccnc(Oc3ccc(-c4ccccc4)cc3)n2)cc1 [SB-245391] ; retrieve measured %Inh.
15

Param item = Cl.Cl.NCC(C(=O)Nc1cc(Br)c(-c2ccnc3[nH]ccc23)s1)c1ccccc1 (stereo not shown) [GSK1269851] ; retrieve measured %Inh.
4

Param item = Cn1cc(-c2[nH]c3cc(NC(=O)[C@H](N)C4CCCCC4)cc4c3c2C=NNC4=O)cn1 ; retrieve measured %Inh.
23

Param item = C[C@@H](Oc1cc(-n2cnc3cc(-c4ccnc(NCCS(C)(=O)=O)c4)ccc32)sc1C(N)=O)c1ccccc1Cl [GSK907232] ; retrieve measured %Inh.
9

Param item = COC(=O)Nc1nc2cc(Oc3ccc(NC(=O)Nc4cc(C(F)(F)F)ccc4F)cn3)ccc2[nH]1.Cl.Cl [GW681170] ; retrieve measured %Inh.
16
